tested on: Tetranychus urticae; assay: Acaricidal activity against Tetranychus urticae (two-spotted spider mite) assessed as mortality at 0.16 g/L measured after 24 hr; format: functional
reported.metric: mortality at 160 µg/mL (%)

compound | reported.metric | observed.result
CC(F)c1cc(C(=O)NCc2ccc(C(C)(C)C)cc2)n(C)n1 (stereo unspecified) | mortality at 160 µg/mL | 16
CC(F)c1nn(C)c(C(=O)NCc2ccc(C(C)(C)C)cc2)c1Cl (stereo unspecified) | mortality at 160 µg/mL | 48
CCc1nn(C)c(C(=O)NCc2ccc(C(C)(C)C)cc2)c1Cl | mortality at 160 µg/mL | 92
Cn1nc(CC(F)F)c(Cl)c1C(=O)NCc1ccc(C(C)(C)C)cc1 | mortality at 160 µg/mL | 80
Cn1nc(CC(F)F)cc1C(=O)NCc1ccc(C(C)(C)C)cc1 | mortality at 160 µg/mL | 59
Cn1nc(CCF)c(Cl)c1C(=O)NCc1ccc(C(C)(C)C)cc1 | mortality at 160 µg/mL | 96
